# Method Description: protein stability index of a GFP-peptide fusion (GPS, HEK-293T) (PSI 1-6); higher = more stable;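 note: 24-mer peptide tiles fused after GFP, lentivirally expressed, FACS-sorted into six equal bins by GFP/DsRed ratio, decoded by Illumina sequencing, PSI is the read-weighted mean bin number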
# Reported Conditions: treatment: DMSO; c terminus: a fixed tail appended
Rule: protein stability index under 3 gives -1, otherwise 1.

Item Sequence	Assigned Class
VVSSEGRQSRRQSVSRFFADSGAD [FBF1]	1
ELERAQHELLLGSLQQQHQADLEL [FBF1]	1
NLSYKQVKTWFQNQRMKSKRWQKN [NANOGP8]	-1
VSKVVKGGSSGKGTTLRGRSDADL [OAS1]	1
SSTNFAMKRDVQEGQARCLAHLGR [C8orf76]	1
ADGQESTPPTPAPTSGIVGALMEV [WASL]	1
DGRQLRKMLRKEAAARCVVLDCRP [DUSP5]	-1
FEGMAFLETEQGKPFVSVFRHLRL [GMCL1]	-1
VSEAGGSGRLSASWEPLSGPSTPS [FCHO1]	1
EFKSSFSQSFSLYVKYQVAIHQDP [ATE1]	-1
AQQIRLHHFNSSHLEIDDMYTPAY [MYORG]	-1
GLGNIWRFPYLCQKNGGGAYLVPY [SLC6A17]	-1
LPDGCQPLQLLREMRQALQALLKE [CBY2]	-1
KQPPLSTVPADGYILELDDGNGGQ [TRIM9]	1
EEEGIETQYFAELLMTSGVVLCEG [CNOT7]	1
PVKKQLQGASWELQSLRPHDEDIK [ZNF396]	1
HVAPLLAAAGLHASPMSADRVVAF [NR2F2]	-1
SPGGTLMDLSERQEVSSVRSLSST [DLC1]	1
VETARSHQRSSSESYTQSFQSRKP [PI4K2A]	1
SCLLPSSEAKLYGRCELARVLHDF [SPACA3]	-1
DTSKQKKMETMYPFIVTLEGNALQ [ZNF449]	1
MGTEPAPSAPEALHSLPGVSLSLE [TBX6]	1
SFGVDEEERVRVLQGVRLSENVVN [CHCHD6]	1
SEGSSSSSSSSSSSSSSASSSASS [NFE2L1]	1
WNDLRPKLSCLFAGPHSTLTPPCS [SNX8]	-1
SPLCLIPMVTSPREEQQLLASTSK [KCTD13]	1
TKRCFRLAPTFSNLLLQPTTNPHT [SMG5]	-1
RSVKVICLGSLASKLSRKYVKAKK [FAN1]	-1
GSLDNAHHVPGGGNVKIDSQKLNF [MAP2]	1
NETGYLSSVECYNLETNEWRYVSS [KLHL14]	-1
MYEEEMEREEITTKKRKLGKNPDV [FAM50A]	1
MLASVESVPFSFDPNTAAGWLSVS [TRIM35]	-1
RMENVTVLGEDVIVNDELYLNGAS [GMPPB]	1
DPGLGEGPALWLRSTCVYVCALSA [PLEKHN1]	-1
NLWYSFQDEEDMFMVVDLLLGGDL [STK32A]	-1
YIATQGSLPETFGDFWRMIWEQRS [PTPRD]	-1
PYAMKPIDYYTETKILQERAVLGA [NSDHL]	-1
YKDRQKFSEQVFKVASSDLVNMGI [FLOT1]	-1
RMIFKLFSQETVMKFVPRYSLVLE [APMAP]	-1
APAMYDDESAIDFSAYIDSMAAVP [CEBPD]	1
GSAEKQAGEAHMAADGETNGSCEN [EHMT1]	1
LASSLGNLNAATDDPENKKTSSSS [CDC14A]	1
SMPCSTDKENGENVGLESKYLKKR [SASS6]	1
NSEDIFLLLCLKVDNHFNLLTTSP [TRIM43]	-1
